The values you see were collected from ChEMBL document CHEMBL1132783.

pKi: −log10 of the molar value.
Consider the following pKi values measured on Prothrombin (Homo sapiens, UniProt P00734).

Query: // lookup pKi for NC(N)=Nc1ccc(CNC(=O)CNC(=O)OCc2ccc(COC(=O)NCC(=O)NCc3ccc(N=C(N)N)cc3)cc2)cc1
Reply: < 3.00

Query: Tell me the measured pKi of N=C(N)Nc1ccc(CNC(=O)CCCC(=O)NCc2ccc(CNC(=O)CCCC(=O)NCc3ccc(NC(=N)N)cc3)cc2)cc1 , please.
Reply: 3.31

Query: Consider the compound shown here: N=C(N)Nc1ccc(CNC(=O)CCNC(=O)OCc2ccc(COC(=O)NCCC(=O)NCc3ccc(NC(=N)N)cc3)cc2)cc1 What is its recorded pKi?
Reply: < 3.00

Query: Give its pKi value. Item: NCc1ccc(CNC(=O)CNC(=O)OCc2ccc(COC(=O)NCC(=O)NCc3ccc(CN)cc3)cc2)cc1
Reply: < 3.00

Query: State the recorded pKi for this entry: NCc1ccc(CNC(=O)CC(=O)NCc2ccc(CNC(=O)CC(=O)NCc3ccc(CN)cc3)cc2)cc1
Reply: < 3.00

Query: Given NCc1ccc(CNC(=O)CCC(=O)NCc2ccc(CNC(=O)CCC(=O)NCc3ccc(CN)cc3)cc2)cc1 , state its recorded pKi.
Reply: < 3.00

* * *

Recorded below: Ki, system Plasminogen (Homo sapiens).

Query: What is its Ki for Plasminogen (Homo sapiens)? Entry: N=C(N)Nc1ccc(CNC(=O)N2CCN(C(=O)O[C@H]3CCC[C@@H](OC(=O)N4CCN(C(=O)NCc5ccccc5)CC4)CCC3)CC2)cc1
Reply: > 1000 µM

Query: API: value(readout= Ki, system= Plasminogen (Homo sapiens), query= N=C(N)Nc1ccc(CNC(=O)CCC(=O)NCc2ccc(CNC(=O)CCC(=O)NCc3ccc(NC(=N)N)cc3)cc2)cc1 )
Reply: > 1000 µM

Query: Tell me reported Ki for NCc1ccc(CNC(=O)CC(=O)NCc2ccc(CNC(=O)CC(=O)NCc3ccc(CN)cc3)cc2)cc1 , tested with Plasminogen (Homo sapiens).
Sequence (P00747 97-580 limits assumed): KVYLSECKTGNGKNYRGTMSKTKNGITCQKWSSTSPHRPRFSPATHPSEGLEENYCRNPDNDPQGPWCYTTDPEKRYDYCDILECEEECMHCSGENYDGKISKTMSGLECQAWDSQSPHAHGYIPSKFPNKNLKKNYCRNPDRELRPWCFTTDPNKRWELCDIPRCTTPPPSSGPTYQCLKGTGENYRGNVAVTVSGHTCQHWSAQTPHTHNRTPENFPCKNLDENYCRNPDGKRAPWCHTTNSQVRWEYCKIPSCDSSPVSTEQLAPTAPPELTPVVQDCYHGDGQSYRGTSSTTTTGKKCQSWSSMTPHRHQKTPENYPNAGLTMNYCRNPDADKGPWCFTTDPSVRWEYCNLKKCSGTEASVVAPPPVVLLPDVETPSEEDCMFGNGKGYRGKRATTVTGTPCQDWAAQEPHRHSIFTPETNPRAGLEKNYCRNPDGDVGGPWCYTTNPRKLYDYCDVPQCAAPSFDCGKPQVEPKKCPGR
Sequence (P00747 581-810 limits assumed): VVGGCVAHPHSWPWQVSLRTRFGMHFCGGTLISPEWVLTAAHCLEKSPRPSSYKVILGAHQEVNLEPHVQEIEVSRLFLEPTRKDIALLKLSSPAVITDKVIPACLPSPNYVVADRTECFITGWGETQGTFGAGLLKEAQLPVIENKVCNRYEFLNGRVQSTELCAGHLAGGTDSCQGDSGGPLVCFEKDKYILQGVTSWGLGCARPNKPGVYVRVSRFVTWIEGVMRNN
Reply: > 1000 µM

Query: Please tell me: Ki of CN(Cc1ccc(CN)cc1)C(=O)CCC(=O)NCc1ccc(CNC(=O)CCC(=O)N(C)Cc2ccc(CN)cc2)cc1 , system Plasminogen (Homo sapiens)?
Reply: > 1000 µM

* * *

Serine protease 1 (Homo sapiens): reported Ki for various compounds.
Sequence (P07477 whole entry): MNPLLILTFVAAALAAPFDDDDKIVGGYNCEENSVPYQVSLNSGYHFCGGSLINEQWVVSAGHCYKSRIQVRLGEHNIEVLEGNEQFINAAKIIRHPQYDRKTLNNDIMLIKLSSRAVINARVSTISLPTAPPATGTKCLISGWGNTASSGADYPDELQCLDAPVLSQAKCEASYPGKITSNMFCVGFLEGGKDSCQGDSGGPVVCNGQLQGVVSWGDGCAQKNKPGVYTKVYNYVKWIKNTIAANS
Kindly provide the numeric value in µM only, without the unit symbol.

Query: Suppose we examine the compound NCc1ccc(CNC(=O)CCCC(=O)NCc2ccc(CNC(=O)CCCC(=O)NCc3ccc(CN)cc3)cc2)cc1 ; what Ki value has been reported?
Reply: 274

Query: Which Ki is reported for this compound? C[C@@H](NC(=O)OCc1ccc(COC(=O)N[C@H](C)C(=O)NCc2ccc(CN)cc2)cc1)C(=O)NCc1ccc(CN)cc1
Reply: 38

Query: Please look up its Ki: N=C(N)Nc1ccc(CNC(=O)N2CCN(C(=O)O[C@H]3CCC[C@@H](OC(=O)N4CCN(C(=O)NCc5ccccc5)CC4)CCC3)CC2)cc1
Reply: 182

Query: Give the measured Ki of NC(N)=Nc1ccc(CNC(=O)CNC(=O)OCc2ccc(COC(=O)NCC(=O)NCc3ccc(N=C(N)N)cc3)cc2)cc1 .
Reply: 56

Query: Item NC(N)=Nc1ccc(CNC(=O)NCC(=O)O[C@H]2CCC[C@@H](OC(=O)CNC(=O)NCc3ccc(N=C(N)N)cc3)CCC2)cc1 has what recorded Ki?
Reply: 78

Query: Name the reported Ki value associated with the compound NCc1ccc(CNC(=O)CCC(=O)NCc2ccc(CNC(=O)CCC(=O)NCc3ccc(CN)cc3)cc2)cc1
Reply: 237

Query: Ki; subject: O=C(NCc1ccccc1)N1CCN(C(=O)O[C@H]2CCC[C@@H](OC(=O)N3CCN(C(=O)NCc4ccccc4)CC3)CCC2)CC1
Reply: 44

Query: Tell me the measured Ki of N=C(N)Nc1ccc(CNC(=O)CC(=O)NCc2ccc(CNC(=O)CC(=O)NCc3ccc(NC(=N)N)cc3)cc2)cc1 , please.
Reply: 73

Query: I would be grateful if you could share the reported Ki for NCc1ccc(CNC(=O)CC(=O)NCc2ccc(CNC(=O)CC(=O)NCc3ccc(CN)cc3)cc2)cc1 .
Reply: 317
